assay: HK-2 cell viability, MTT assay, with or without co-cultured HLMs; format: cell-based, human; conditions: human, HK-2 cells co-cultured with HLMs (0.16 g/L), BAK 90 µM, with HLMs 0.16 g/L, 4 h, mean; read-out: HK-2 Cell viability (%)

{"entry_smiles": "C=C[C@@](C)(/C=C/c1ccc(O)cc1)CCC=C(C)C", "viability at 4 h, 90 µM (%)": 92.5}

---

molecular target: CYP2C19 (Homo sapiens, UniProt P33261); construct: was investigated in HLMs; tissue iPhase Pharmaceutical Services (Beijing, China) Lot # 7MMC011; host or cells: pooled human liver microsomes; assay: Inhibition of CYP activities by GA in HLMs (mephenytoin); format: biochemical; settings: human, human liver microsomes, probe mephenytoin (25 µM); CYP2C19-30min; GA 6.2500; vs control; read-out: Relative activity (%)
Sequence (P33261 whole entry): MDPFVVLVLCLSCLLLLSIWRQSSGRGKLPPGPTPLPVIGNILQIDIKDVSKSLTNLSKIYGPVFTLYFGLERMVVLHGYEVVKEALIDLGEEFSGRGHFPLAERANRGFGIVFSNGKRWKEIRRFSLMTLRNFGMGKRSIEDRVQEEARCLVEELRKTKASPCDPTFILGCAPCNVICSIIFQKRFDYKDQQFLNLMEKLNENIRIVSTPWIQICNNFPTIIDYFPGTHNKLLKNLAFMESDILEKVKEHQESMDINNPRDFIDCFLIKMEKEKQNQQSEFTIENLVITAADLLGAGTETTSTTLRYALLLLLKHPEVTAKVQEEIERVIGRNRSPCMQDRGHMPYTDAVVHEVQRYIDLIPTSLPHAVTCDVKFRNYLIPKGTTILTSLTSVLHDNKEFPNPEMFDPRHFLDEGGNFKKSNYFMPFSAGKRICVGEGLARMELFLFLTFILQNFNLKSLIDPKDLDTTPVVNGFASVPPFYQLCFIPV

{"molecule": "CC1(C)[C@@H](O)CC[C@]2(C)[C@H]3C(=O)C=C4[C@@H]5C[C@@](C)(C(=O)O)CC[C@]5(C)CC[C@@]4(C)[C@]3(C)CC[C@@H]12 [GA, Glycyrrhetinic acid]", "activity at 30 min, 6.25 µM": "88%"}

---

experiment: BAK exposure in rat liver and kidney 24 h after dosing; type: in vivo, Sprague–Dawley rats; details: Sprague-Dawley, kidney, po, 200 mg/kg, 24 h after single oral dose, read-out: Exposure of BAK, Kidney, single rats
result_type: concentration at 24 h (ng/g)

{"entry_smiles": "C=C[C@@](C)(/C=C/c1ccc(O)cc1)CCC=C(C)C", "result_type": "concentration at 24 h", "unit_of_measurement": "ng/g", "reported_measurement": 661}

---

Experiment: Toxicokinetics of BAK in rat plasma after a single oral dose
Type: in vivo, Sprague–Dawley rats
Details: Sprague-Dawley, rat, plasma, po, 200 mg/kg, 8.000 h after single oral dose
Experimental: ABT, a broad-spectrum nonspecific CYP inhibitor, was selected as a positive control inhibitor of CYP enzymes. Aristolochic acid A (AA I) was selected as the nephrotoxicity positive control in the study. The plasma samples were separated by centrifugation at 4000 rpm for 15 min. […] Subsequently, 10 µL of internal standard solution (tanshinone II A, 10 µg/mL) and 0.3 mL of acetonitrile were added to 0.1 mL of plasma or homogenates, and centrifuged at 13,300 rpm for 15 min after 2 min of vortexing. […]

{"molecule": "C=C[C@@](C)(/C=C/c1ccc(O)cc1)CCC=C(C)C [BAK, Bakuchiol]", "unit_of_measurement": "ng/mL", "concentration at 8 h": 370}
